collision cross section overview
Test: collision cross section of modified peptide (TIMS, N2, iRT-aligned); higher = larger / more extended gas-phase ion
Details: charge state: 2; modification: Hydroxyproline
Answer format: numeric, Å² implied, no suffix.

| ENTRY SEQUENCE | VALUE UNIT | collision cross section |
| --- | --- | --- |
| LGPPGNPGPSGSPGPK [_LGPPGNP(Hydroxyproline)GPSGSPGPK_] | Å² | 386.54 |
| GEPGIPAIPGIRGPK [_GEPGIP(Hydroxyproline)AIPGIRGPK_] | Å² | 382.81 |
| PGLKGEQGEPGAPGIR [_PGLKGEQGEPGAP(Hydroxyproline)GIR_] | Å² | 410.74 |
| LGPPGNPGPSGSPGPKGQK [_LGPPGNPGPSGSP(Hydroxyproline)GPKGQK_] | Å² | 423.7 |
| GTPGKPGPR [_GTPGKP(Hydroxyproline)GPR_] | Å² | 308.55 |

Prompt: Consider the sequence PPGFSPFR [_PP(Hydroxyproline)GFSPFR_] . State its measured collision cross section.
Response: 331.47

Prompt: Please supply the value of reported collision cross section for the item GEPGIPAIPGIR [_GEPGIP(Hydroxyproline)AIPGIR_]
Response: 346.11

Prompt: Please supply the value of reported collision cross section for the item VPGVGLPGVYPGGVLPGAR [_VPGVGLPGVYPGGVLP(Hydroxyproline)GAR_]
Response: 432.24

Prompt: Look up and report measured collision cross section for this entry: GPPGPPGK [_GPPGP(Hydroxyproline)PGK_]
Response: 274.06

Prompt: Provide measured collision cross section value, entry: GDNGSVGEPGPK [_GDNGSVGEP(Hydroxyproline)GPK_]
Response: 344.87

Every entry's value here was drawn from the supplement of paper PMC10598134.
